STUDY_SYSTEM: recombinant human ALK5 (TGF-βR1) protein (Homo sapiens)
Construct: purchased Life Technologies PR9075A
Sequence (P36897 34-503): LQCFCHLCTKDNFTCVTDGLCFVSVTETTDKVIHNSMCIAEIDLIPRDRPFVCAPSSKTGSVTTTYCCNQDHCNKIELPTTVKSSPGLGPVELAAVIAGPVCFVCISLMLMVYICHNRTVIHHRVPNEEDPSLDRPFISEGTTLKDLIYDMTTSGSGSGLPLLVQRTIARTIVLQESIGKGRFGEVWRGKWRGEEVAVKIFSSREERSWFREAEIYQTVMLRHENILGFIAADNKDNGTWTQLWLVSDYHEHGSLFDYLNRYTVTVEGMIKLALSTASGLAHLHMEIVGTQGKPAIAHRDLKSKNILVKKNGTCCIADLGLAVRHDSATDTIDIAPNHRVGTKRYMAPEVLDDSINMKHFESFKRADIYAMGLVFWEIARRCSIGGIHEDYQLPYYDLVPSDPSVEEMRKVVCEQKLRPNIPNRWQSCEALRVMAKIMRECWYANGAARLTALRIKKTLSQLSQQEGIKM
ASSAY_PROTOCOL: Biochemical ALK5 (TGF-βR1) assay to measure pKi (LANCE Ultra ULight kinase assay)
CONDITION: apparent pKi from pIC50 by Cheng-Prusoff, read-out: ALK5 pKi (converted)
ENDPOINT_NAME: Ki

Input: Using recombinant human ALK5 (TGF-βR1) protein (Homo sapiens) as the test system, report measured Ki of Cc1cccc(-c2n[nH]cc2-c2ccc3ncc(Nc4ccc(N5CCNCC5)cc4)cc3c2)n1 .
Output: 0.0398 to 0.316 nM

Input: Using recombinant human ALK5 (TGF-βR1) protein (Homo sapiens) as the test system, report measured Ki of Cc1cccc(-c2[nH]cnc2-c2ccc3ncc(-c4csc(C(=O)OC[C@H]5CCCN5)c4)cc3c2)n1 .
Output: < 0.0316 nM

Input: Using recombinant human ALK5 (TGF-βR1) protein (Homo sapiens) as the test system, report measured Ki of Cc1cccc(-c2[nH]cnc2-c2ccc3ncc(C(=O)OCC4CC5(CNC5)C4)cc3c2)n1 .
Output: 0.0398 to 0.316 nM

Input: Using recombinant human ALK5 (TGF-βR1) protein (Homo sapiens) as the test system, report measured Ki of Cc1cccc(-c2[nH]ncc2-c2ccc3ncc(C(=O)OC4CCNCC4)cc3n2)n1 .
Output: 0.0398 to 0.316 nM

Input: Using recombinant human ALK5 (TGF-βR1) protein (Homo sapiens) as the test system, report measured Ki of Cc1cccc(-c2[nH]cnc2-c2ccc3ncc(-c4ccc(C(=O)O[C@H]5CCN(C)C5)nc4)cc3c2)n1 .
Output: 0.0398 to 0.316 nM

Input: Using recombinant human ALK5 (TGF-βR1) protein (Homo sapiens) as the test system, report measured Ki of Cc1cccc(-c2[nH]cnc2-c2ccc3ncc(-c4ncc(C(=O)OCCN5CCNCC5)s4)cc3c2)n1 .
Output: 0.0398 to 0.316 nM

Input: Using recombinant human ALK5 (TGF-βR1) protein (Homo sapiens) as the test system, report measured Ki of Cc1nc(-c2nc3ccccn3c2-c2ccc3ncc(-c4cn[nH]c4)cc3n2)ccc1F .
Output: 0.0398 to 0.316 nM

Input: Using recombinant human ALK5 (TGF-βR1) protein (Homo sapiens) as the test system, report measured Ki of Cc1cccc(-c2nnn(Cc3ccccc3)c2-c2ccc3ncc(N4CCCNCC4)cc3c2)n1 .
Output: 0.0398 to 0.316 nM

Input: Using recombinant human ALK5 (TGF-βR1) protein (Homo sapiens) as the test system, report measured Ki of Cc1cccc(-c2[nH]cnc2-c2ccc3ncc(-c4cncc(C(=O)O[C@@H]5CCN(C)C5)c4)cc3c2)n1 .
Output: 0.0398 to 0.316 nM

Input: Using recombinant human ALK5 (TGF-βR1) protein (Homo sapiens) as the test system, report measured Ki of Cc1cccc(-c2[nH]cnc2-c2ccc3ncc(-c4cc(C(=O)O[C@@H]5CCNC5)cs4)cc3c2)n1 .
Output: < 0.0316 nM

Input: Using recombinant human ALK5 (TGF-βR1) protein (Homo sapiens) as the test system, report measured Ki of Cc1nc(-c2n[nH]cc2-c2ccc3ncc(-c4cn[nH]c4)cc3n2)ccc1F .
Output: < 0.0316 nM

Input: Using recombinant human ALK5 (TGF-βR1) protein (Homo sapiens) as the test system, report measured Ki of Cc1cccc(-c2n[nH]cc2-c2ccc3ncc(CN4CC(N5CCOCC5)C4)cc3n2)n1 .
Output: 3.98 to 31.6 nM

Input: Using recombinant human ALK5 (TGF-βR1) protein (Homo sapiens) as the test system, report measured Ki of Cc1cccc(-c2n[nH]cc2-c2ccc3ncc(CCC(=O)O)cc3n2)n1 .
Output: 3.98 to 31.6 nM

Input: Using recombinant human ALK5 (TGF-βR1) protein (Homo sapiens) as the test system, report measured Ki of Cc1cccc(-c2n[nH]cc2-c2ccc3ncc(CNCCN4CCOCC4)cc3n2)n1 .
Output: 0.398 to 3.16 nM

Input: Using recombinant human ALK5 (TGF-βR1) protein (Homo sapiens) as the test system, report measured Ki of Cc1cccc(-c2n[nH]cc2-c2ccc3ncc(N4CCN[C@H](C)C4)cc3n2)n1 .
Output: 0.0398 to 0.316 nM

Input: Using recombinant human ALK5 (TGF-βR1) protein (Homo sapiens) as the test system, report measured Ki of Cc1cccc(-c2[nH]cnc2-c2ccc3ncc(-c4ccc(C(=O)OC5CNC5)cn4)cc3c2)n1 .
Output: 0.0398 to 0.316 nM

Input: Using recombinant human ALK5 (TGF-βR1) protein (Homo sapiens) as the test system, report measured Ki of Cc1cccc(-c2[nH]cnc2-c2ccc3ncc(N4CCC(C(=O)O)CC4)cc3c2)n1 .
Output: 0.0398 to 0.316 nM

Input: Using recombinant human ALK5 (TGF-βR1) protein (Homo sapiens) as the test system, report measured Ki of Cc1cccc(-c2[nH]cnc2-c2ccc3ncc(NCCN4CCC[C@@H](N)C4)cc3c2)n1 .
Output: 0.0398 to 0.316 nM

Input: Using recombinant human ALK5 (TGF-βR1) protein (Homo sapiens) as the test system, report measured Ki of COC(=O)c1ccnc2ccc(-c3cn[nH]c3-c3cccc(C)n3)cc12 .
Output: 0.0398 to 0.316 nM

Input: Using recombinant human ALK5 (TGF-βR1) protein (Homo sapiens) as the test system, report measured Ki of Cc1cccc(-c2[nH]cnc2-c2ccc3ncc(-c4csc(C(=O)OC5CNC5)c4)cc3c2)n1 .
Output: 0.0398 to 0.316 nM

Input: Using recombinant human ALK5 (TGF-βR1) protein (Homo sapiens) as the test system, report measured Ki of Cc1cccc(-c2nnn(Cc3ccccc3)c2-c2ccc3ncc(N4CCCNCC4)cc3n2)n1 .
Output: 0.0398 to 0.316 nM

====

STUDY_SYSTEM: recombinant human ALK5 (TGF-βR1) protein (Homo sapiens)
Construct: purchased Life Technologies PR9075A
ASSAY_PROTOCOL: Biochemical ALK5 (TGF-βR1) assay to measure pKi (LANCE Ultra ULight kinase assay)
CONDITION: apparent pKi from pIC50 by Cheng-Prusoff, read-out: ALK5 pKi (converted)
Ki for assorted compounds

Examples from the recorded data:
| COMPOUND | Ki |
| --- | --- |
| Cc1nc(-c2[nH]cnc2-c2ccc3ncc(-c4cnn(C5CCCNC5)c4)cc3n2)ccc1F (stereo not shown) | 0.0398 to 0.316 nM |
| Cc1cccc(-c2[nH]cnc2-c2ccc3ncc(-c4ccc5c(c4)CC[C@@H]5N)cc3c2)n1 | 0.0398 to 0.316 nM |
| Cc1cccc(-c2[nH]cnc2-c2ccc3ncc(-c4cccc(C(=O)O[C@H]5CCN(C)C5)c4)cc3c2)n1 | 0.0398 to 0.316 nM |
| Cc1cccc(-c2n[nH]cc2-c2ccc3ncc(N4CCNCC4)cc3n2)n1 | < 0.0316 nM |
| Cc1cccc(-c2n[nH]cc2-c2ccc3ncc(Nc4ccc(N5CCN(C)CC5)cn4)cc3c2)n1 | 0.0398 to 0.316 nM |
| Cc1cccc(-c2n[nH]cc2-c2ccc3ncc(-c4ccc(O)nc4)cc3n2)n1 | < 0.0316 nM |
| Cc1cccc(-c2[nH]cnc2-c2ccc3ncc(C4=CC(N)CCC4)cc3c2)n1 (stereo not shown) | 0.0398 to 0.316 nM |
| Cc1cccc(-c2[nH]cnc2-c2ccc3ncc(NCCN4CCC5(CCNCC5)C4)cc3c2)n1 | 0.0398 to 0.316 nM |
| COc1[nH]nc(-c2cccc(C)n2)c1-c1ccc2ncc(Br)cc2n1 | 0.0398 to 0.316 nM |
| Cc1cccc(-c2nc3ccccn3c2-c2ccc3ncc(N4CCC(N5CCN(C)CC5)CC4)cc3c2)n1 | 0.0398 to 0.316 nM |

Input: Using recombinant human ALK5 (TGF-βR1) protein (Homo sapiens) as the test system, report measured Ki of Cc1cccc(-c2n[nH]cc2-c2ccc3ncc(-c4cnn(CCN5CCCC5=O)c4)cc3n2)n1 .
Output: < 0.0316 nM

Input: Using recombinant human ALK5 (TGF-βR1) protein (Homo sapiens) as the test system, report measured Ki of Cc1cccc(-c2[nH]cnc2-c2ccc3ncc(-c4cccc(C(=O)O[C@H]5CCNC5)n4)cc3c2)n1 .
Output: 0.0398 to 0.316 nM

Input: Using recombinant human ALK5 (TGF-βR1) protein (Homo sapiens) as the test system, report measured Ki of Cc1nc(-c2n[nH]cc2-c2ccc3ncc(N4CCCNCC4)cc3c2)ccc1F .
Output: 0.0398 to 0.316 nM

Input: Using recombinant human ALK5 (TGF-βR1) protein (Homo sapiens) as the test system, report measured Ki of Cc1cccc(-c2[nH]cnc2-c2ccc3ncc(-c4cc(C(=O)O[C@H]5CCNC5)ccn4)cc3c2)n1 .
Output: 0.0398 to 0.316 nM

Input: Using recombinant human ALK5 (TGF-βR1) protein (Homo sapiens) as the test system, report measured Ki of Cc1cccc(-c2[nH]nnc2-c2ccc3ncc(N4CCC(N5CCN(C)CC5)CC4)cc3c2)n1 .
Output: 0.0398 to 0.316 nM

Input: Using recombinant human ALK5 (TGF-βR1) protein (Homo sapiens) as the test system, report measured Ki of Cc1nc(-c2n[nH]cc2-c2ccc3ncc(-c4nc5c(s4)CNCC5)cc3n2)ccc1F .
Output: 0.0398 to 0.316 nM
